Target: BRAF V600E (Homo sapiens, UniProt P15056, V600E)
Construct: endogenous C-terminal HiBiT fusion tag on BRAF V600E allele; endogenous in cells; host or cells: A375 clone 1F10 (CRISPR-Cas9 knock-in of the HiBiT tag; parental A375 from ATCC)
Sequence (P15056 whole entry V600E, the tested form may be a part): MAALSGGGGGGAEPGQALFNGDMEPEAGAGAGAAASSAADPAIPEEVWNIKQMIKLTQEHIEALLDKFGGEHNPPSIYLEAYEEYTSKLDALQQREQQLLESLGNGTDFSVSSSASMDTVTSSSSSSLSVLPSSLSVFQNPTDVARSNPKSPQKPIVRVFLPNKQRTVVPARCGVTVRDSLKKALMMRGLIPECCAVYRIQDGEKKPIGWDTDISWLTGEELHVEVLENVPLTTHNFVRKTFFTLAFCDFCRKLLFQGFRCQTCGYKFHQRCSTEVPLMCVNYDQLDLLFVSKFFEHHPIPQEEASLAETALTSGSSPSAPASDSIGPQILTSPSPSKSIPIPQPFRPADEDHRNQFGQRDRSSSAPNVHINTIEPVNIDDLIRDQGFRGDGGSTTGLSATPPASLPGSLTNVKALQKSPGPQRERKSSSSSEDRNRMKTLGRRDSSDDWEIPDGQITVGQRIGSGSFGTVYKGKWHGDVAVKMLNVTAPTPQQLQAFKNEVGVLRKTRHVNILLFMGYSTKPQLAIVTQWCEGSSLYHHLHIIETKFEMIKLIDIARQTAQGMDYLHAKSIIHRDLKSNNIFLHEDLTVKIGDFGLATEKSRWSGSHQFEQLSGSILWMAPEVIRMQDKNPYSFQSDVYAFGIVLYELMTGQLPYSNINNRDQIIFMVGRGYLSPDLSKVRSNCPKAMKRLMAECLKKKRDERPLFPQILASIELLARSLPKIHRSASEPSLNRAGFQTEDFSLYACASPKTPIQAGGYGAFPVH
Experiment: BRAF HiBiT degradation assay, C-terminal HiBiT-tagged BRAF V600E A375 cells (clone 1F10), Nano-Glo HiBiT Lytic assay
Assay type: cell-based
Details: A-375; A375 (BRAF V600E); percentage protein degraded at maximal compound effect relative to DMSO
Below, each of the compounds is paired with its reported Dmax value.

The compound listed as CCN(C)S(=O)(=O)Nc1cccc(-c2nc(C(C)(C)C)sc2-c2ccnc(Nc3ccc(N4CCN(C(=O)C5CCN(c6ccc(C7CCC(=O)NC7=O)cc6)CC5)CC4)cn3)n2)c1F (racemic) shows Dmax equal to > 70%

Item: CCCS(=O)(=O)Nc1cccc(-c2nc(C3CCN(C(=O)C4CCN(C(=O)C5CCN(c6ccc(C7CCC(=O)NC7=O)cn6)CC5)CC4)CC3)sc2-c2ccnc(NC(C)C)n2)c1F (racemic) | Dmax: > 70%
